Field: relative viability. Provide a value for each of the compounds that follow.
System: ABC-1
Test: relative viability (nuclei count vs DMSO), 5 days (fraction); higher = more cells survive
Conditions: first compound 0.3162 µM

compound="O=c1cc(N2CCOCC2)oc2c(-c3cccc4c3sc3ccccc34)cccc12 + CS(=O)(=O)N1CCN(Cc2cc3nc(-c4cccc5[nH]ncc45)nc(N4CCOCC4)c3s2)CC1 [Pictilisib] (partner 1 µM)" recorded_endpoint="relative viability" assay_value=0.888
compound="CCN(CC)CCCCNc1ncc2cc(-c3cc(OC)cc(OC)c3)c(NC(=O)NC(C)(C)C)nc2n1 + C[C@@H](Oc1cc(-c2cnn(C3CCNCC3)c2)cnc1N)c1c(Cl)ccc(F)c1Cl [Crizotinib] (partner 1 µM)" recorded_endpoint="relative viability" assay_value=1.09
compound="O=c1cc(N2CCOCC2)oc2c(-c3cccc4c3sc3ccccc34)cccc12 + CC(C)C[C@H](NC(=O)[C@H](Cc1ccccc1)NC(=O)c1cnccn1)B(O)O [Bortezomib] (partner 0.002 µM)" recorded_endpoint="relative viability" assay_value=0.261
compound="O=c1cc(N2CCOCC2)oc2c(-c3cccc4c3sc3ccccc34)cccc12 + C[C@@H](Oc1cc(-c2cnn(C3CCNCC3)c2)cnc1N)c1c(Cl)ccc(F)c1Cl [Crizotinib] (partner 1 µM)" recorded_endpoint="relative viability" assay_value=1.06
compound="O=c1cc(N2CCOCC2)oc2c(-c3cccc4c3sc3ccccc34)cccc12 + Nc1ncn([C@H]2C[C@H](O)[C@@H](CO)O2)c(=O)n1 [Decitabine] (partner 2 µM)" recorded_endpoint="relative viability" assay_value=0.959
compound="O=c1cc(N2CCOCC2)oc2c(-c3cccc4c3sc3ccccc34)cccc12 + NC(=O)Nc1cc(-c2cccc(F)c2)sc1C(=O)N[C@H]1CCCNC1 [AZD7762] (partner 0.2 µM)" recorded_endpoint="relative viability" assay_value=0.694
compound="O=c1cc(N2CCOCC2)oc2c(-c3cccc4c3sc3ccccc34)cccc12 + Cc1nc(Nc2ncc(C(=O)Nc3c(C)cccc3Cl)s2)cc(N2CCN(CCO)CC2)n1 [Dasatinib] (partner 0.075 µM)" recorded_endpoint="relative viability" assay_value=0.488
compound="CCN(CC)CCCCNc1ncc2cc(-c3cc(OC)cc(OC)c3)c(NC(=O)NC(C)(C)C)nc2n1 + CC(C)C[C@H](NC(=O)[C@H](Cc1ccccc1)NC(=O)c1cnccn1)B(O)O [Bortezomib] (partner 0.002 µM)" recorded_endpoint="relative viability" assay_value=0.247

Count: 3. Required value per item: relative viability.
1. O=c1cc(N2CCOCC2)oc2c(-c3cccc4c3sc3ccccc34)cccc12 + Cc1cc(Nc2cc(N3CCN(C)CC3)nc(Sc3ccc(NC(=O)C4CC4)cc3)n2)n[nH]1 [Tozasertib] (partner 0.1 µM)
2. CCN(CC)CCCCNc1ncc2cc(-c3cc(OC)cc(OC)c3)c(NC(=O)NC(C)(C)C)nc2n1 + CS(=O)(=O)CCNCc1ccc(-c2ccc3ncnc(Nc4ccc(OCc5cccc(F)c5)c(Cl)c4)c3c2)o1 [Lapatinib] (partner 2 µM)
3. CCN(CC)CCCCNc1ncc2cc(-c3cc(OC)cc(OC)c3)c(NC(=O)NC(C)(C)C)nc2n1 + C[C@]1(O)C[C@@H](c2nc(-c3ccc4ccc(-c5ccccc5)nc4c3)c3c(N)nccn32)C1 [Linsitinib] (partner 1 µM)

# output
1. 0.21
2. 1.34
3. 0.838
